# TEST DETAILS: clinical
# SETTINGS: human, plasma, intravenous, 175 mg/m^2
RESULT TYPE: AUC(0-inf) (ng·h/mL)
Numeric answer only, unit ng·h/mL assumed.

Exercise: Suppose we examine the compound CC(=O)O[C@H]1C(=O)[C@@]2(C)[C@H]([C@H](OC(=O)c3ccccc3)[C@]3(O)C[C@H](OC(=O)[C@H](O)[C@@H](NC(=O)c4ccccc4)c4ccccc4)C(C)=C1C3(C)C)[C@]1(OC(C)=O)CO[C@@H]1C[C@@H]2O [paclitaxel] ; what AUC(0-inf) value has been reported?
Solution: 16100

Source: paper PMC3463759
